molecular target: EGFR (T790M/L858R) (Homo sapiens, UniProt P00533, L858R/T790M); assay: Omnia continuous-read kinase assay, EGFR (T790M/L858R); settings: read-out: EGFR (T790M/L858R) inhibiton
Sequence (P00533 25-1210 T790M/L858R): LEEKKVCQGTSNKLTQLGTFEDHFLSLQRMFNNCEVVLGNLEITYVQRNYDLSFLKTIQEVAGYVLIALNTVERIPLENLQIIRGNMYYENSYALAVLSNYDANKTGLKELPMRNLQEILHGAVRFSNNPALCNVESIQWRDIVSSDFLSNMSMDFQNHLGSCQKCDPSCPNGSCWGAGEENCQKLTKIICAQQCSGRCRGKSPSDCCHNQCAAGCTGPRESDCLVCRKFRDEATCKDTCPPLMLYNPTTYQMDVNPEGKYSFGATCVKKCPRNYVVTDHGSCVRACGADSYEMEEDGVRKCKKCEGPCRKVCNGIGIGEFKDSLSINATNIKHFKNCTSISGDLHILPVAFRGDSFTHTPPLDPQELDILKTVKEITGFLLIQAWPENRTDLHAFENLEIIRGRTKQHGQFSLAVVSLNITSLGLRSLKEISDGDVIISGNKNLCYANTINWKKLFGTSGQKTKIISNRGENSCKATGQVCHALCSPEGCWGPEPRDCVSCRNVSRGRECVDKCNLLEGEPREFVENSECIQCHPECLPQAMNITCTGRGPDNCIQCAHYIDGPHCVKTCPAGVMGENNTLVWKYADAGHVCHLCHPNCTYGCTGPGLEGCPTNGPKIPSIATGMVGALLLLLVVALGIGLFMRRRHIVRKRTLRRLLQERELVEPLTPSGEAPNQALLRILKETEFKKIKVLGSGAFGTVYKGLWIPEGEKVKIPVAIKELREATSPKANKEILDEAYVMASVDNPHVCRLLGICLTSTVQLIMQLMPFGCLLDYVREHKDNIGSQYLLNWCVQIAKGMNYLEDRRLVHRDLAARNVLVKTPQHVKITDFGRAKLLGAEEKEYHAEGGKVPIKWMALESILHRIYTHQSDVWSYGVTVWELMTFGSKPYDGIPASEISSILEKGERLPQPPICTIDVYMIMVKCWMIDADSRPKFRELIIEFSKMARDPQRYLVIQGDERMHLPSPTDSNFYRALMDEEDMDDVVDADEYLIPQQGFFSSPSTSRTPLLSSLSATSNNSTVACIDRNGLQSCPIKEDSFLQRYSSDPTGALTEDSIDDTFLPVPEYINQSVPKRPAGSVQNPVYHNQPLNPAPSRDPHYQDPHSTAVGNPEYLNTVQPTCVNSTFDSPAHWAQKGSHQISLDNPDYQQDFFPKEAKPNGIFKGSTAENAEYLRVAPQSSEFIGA
Below, each entry is listed with its recorded IC50.

molecule | measured.result
CN(C)C/C=C/C(=O)Nc1cccc(Nc2cc(Nc3ccc(F)c(Cl)c3)ncn2)c1 [I-18] | ≤ 10 nM
N#CC1(C(=O)Nc2cccc(Nc3cc(Nc4ccc(F)c(Cl)c4)ncn3)c2)CC1 [I-47] | ≥ 10000 nM
C=CC(=O)Nc1cccc(Nc2cc(Oc3cccc(C(F)(F)F)c3)ncn2)c1 [I-9] | 100 to 1000 nM

Query: Which measured IC50 value corresponds to C=CS(=O)(=O)Nc1cccc(Nc2cc(Oc3cccc(C(F)(F)F)c3)ncn2)c1 [I-10] ?
Response: 100 to 1000 nM

Query: Here is the next molecule: C#Cc1cccc(Nc2cc(Nc3cccc(C#C)c3)ncn2)c1 [I-11]
Response: ≥ 10000 nM

The reported measurements were obtained from patent US9296704B2.
